- experimentalSystem: T1, EGFR-Fc fusion protein (recombinant EGFR extracellular region-Fc) (human, UniProt P00533 25-645)
- T1 construct: extracellular domain; not shown: Fc part supplied by vector pABG1
- protocol: BLI ForteBio QKe, biotinylated EGFR-Fc on streptavidin sensor, antibody 20 nM; fold reduction of affinity, parent Ame55 = 1;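 also: parent antibody affinity set as 1, with values giving the fold drop in affinity of each mutant antibody relative to that parent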
propertyName: Affinity change

[[record]]
binder = "Ame55 mutant, light chain G28P (antibody, V domains shown, Mutant of Ame55) VH: EVQLVQSGAEVKKPGESLKISCKGSGYSFTSYWIGWVRQMPGKGLEWMGIIYPGDSDTRYSPSFQGQVTISADKSISTAYLQWSSLKASDTAMYYCARGIIYPSNVAVWGQGTLVTVSS VL: SYELTQPPSVSVAPGQTARITCSGDALPDKYASWYQQKPGQAPVLVIYEDSKRPSGIPERFSGSNSGNTATLTISGTQAEDEADYYCSVWDGDWGMPVFGGGTKLTVLG"
result = "> 100 fold"

[[record]]
binder = "Ame55 mutant, heavy chain 105A (antibody, V domains shown, Mutant of Ame55) VH: EVQLVQSGAEVKKPGESLKISCKGSGYSFTSYWIGWVRQMPGKGLEWMGIIYPGDSDTRYSPSFQGQVTISADKSISTAYLQWSSLKASDTAMYYCARGIIYPSAVAVWGQGTLVTVSS VL: SYELTQPPSVSVAPGQTARITCSGDALGDKYASWYQQKPGQAPVLVIYEDSKRPSGIPERFSGSNSGNTATLTISGTQAEDEADYYCSVWDGDWGMPVFGGGTKLTVLG"
result = "> 10 fold"

[[record]]
binder = "Ame55 mutant, light chain 92S (antibody, V domains shown, Mutant of Ame55) VH: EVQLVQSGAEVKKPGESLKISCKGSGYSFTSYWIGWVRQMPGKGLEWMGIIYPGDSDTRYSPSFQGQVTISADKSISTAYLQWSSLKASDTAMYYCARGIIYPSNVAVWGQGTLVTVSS VL: SYELTQPPSVSVAPGQTARITCSGDALGDKYASWYQQKPGQAPVLVIYEDSKRPSGIPERFSGSNSGNTATLTISGTQAEDEADYYCSVWDSDWGMPVFGGGTKLTVLG"
result = "4 fold"

[[record]]
binder = "Ame55 mutant, heavy chain 51A (antibody, V domains shown, Mutant of Ame55) VH: EVQLVQSGAEVKKPGESLKISCKGSGYSFTSYWIGWVRQMPGKGLEWMGIAYPGDSDTRYSPSFQGQVTISADKSISTAYLQWSSLKASDTAMYYCARGIIYPSNVAVWGQGTLVTVSS VL: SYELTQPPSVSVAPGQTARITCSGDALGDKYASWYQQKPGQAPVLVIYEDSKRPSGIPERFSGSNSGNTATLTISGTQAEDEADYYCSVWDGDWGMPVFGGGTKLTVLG"
result = "> 10 fold"

[[record]]
binder = "Ame55 mutant, light chain 91A (antibody, V domains shown, Mutant of Ame55) VH: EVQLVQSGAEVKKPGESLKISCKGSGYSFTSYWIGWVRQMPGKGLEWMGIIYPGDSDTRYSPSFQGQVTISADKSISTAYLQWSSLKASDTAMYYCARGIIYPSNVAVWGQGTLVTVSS VL: SYELTQPPSVSVAPGQTARITCSGDALGDKYASWYQQKPGQAPVLVIYEDSKRPSGIPERFSGSNSGNTATLTISGTQAEDEADYYCSVWAGDWGMPVFGGGTKLTVLG"
result = "> 10 fold"

